Tested on: NCI-H322M lung
Assay: NCI-60 one-dose screen, 48 h (100 = growth as untreated, 0 = no growth, -100 = all killed)
Conditions: 10 µM unless noted
Compounds without any hit were thinned out: in the full panel of roughly 83,000, 20% have a hit.
Consider the following compounds and their measured growth readings.
EXPERIMENTAL READOUT: growth (%)

>>> df
                                    compound  experimental_readout  display_unit  observed
 0      CC(=O)N(N=O)c1ccc([N+](=O)[O-])cc1Cl                growth             %      74.3
 1                                C=CCNCCC#N                growth             %       115
 2  COc1ccc(-c2nc(SCC(C)C)nc(Nc3ccc([N+](=O)[O-])cc3)c2C#N)cc1                growth             %      86.8
 3  C/C=C/C/C=C/[C@H](C)C[C@H](O)[C@@H]1C[C@@H]2O[C@H]2/C=C/[C@@H]2OC(C)(C)O[C@H]2/C=C/C[C@H](C)CC(=O)O1                growth             %      55.5
 4  C/C=C(/C)C(=O)OC1C=C(CO)C(=O)C(OC(=O)/C(C)=C\C)C1C(C)C (configuration not stated)                growth             %     -90.3
 5    N=C(N)c1ccc(-c2ccc(-c3ccc(Cl)cc3)s2)s1                growth             %     -74.9
 6   COc1ccc(-c2nc(N)n(C(=S)Nc3ccccc3)n2)cc1                growth             %       101
 7       Nc1ccc(S(=O)(=O)Nc2cc(F)cc(F)c2)cc1                growth             %       114
 8        O=C(/C=C/c1ccc(Cl)cc1)c1ccc(Cl)cc1                growth             %      91.3
 9  COc1ccc(Oc2[nH]n(C3=Nc4ccccc4Sc4ccccc43)c(=O)c2C#N)cc1                growth             %       125
10     COc1ccc2cn3c4ccc(O)cc4[nH]c(=O)c3c2c1                growth             %        41
11  CCOC(=O)c1c(C)oc2ncnc(Nc3ccc(NC(=O)Nc4cccc(Cl)c4)cc3)c12                growth             %      83.6
12  O=C1CSC(c2ccccc2Cl)N1c1nnc(-c2ccncc2)o1 (configuration not stated)                growth             %       105
13         COc1ccc(Nc2c3ccccc3nc3ccccc23)cc1                growth             %      43.3
14                      Cn1c2ccccc2c2ccccc21                growth             %      94.9
15  COc1ccc(CN2C(=O)/C(=C\C(=O)c3ccc(OCCN4CCCC4)cc3)c3ccccc32)cc1                growth             %      97.6
16   COc1cc(C(=O)Nc2ccc(N(C)C)cc2)cc(OC)c1OC                growth             %      93.4
17  COC(=O)c1ccc2[nH]c(O)c(C(=Nc3ccc(N(C)C(=O)CN4CCN(C)CC4)cc3)c3ccc([N+](=O)[O-])cc3)c2c1                growth             %      41.9
18  O=C(/C=C\c1ccc(NCc2ccc(C(=O)O)cc2)cc1)CCl                growth             %        97
19  COc1ccc2cc(C(C)C(=O)Nc3ccc(S(=O)(=O)Nc4cc(C)on4)cc3)ccc2c1 (configuration not stated)                growth             %       108
20                 CCOC(=O)/C(C#N)=C(/CC)OCC                growth             %      92.2
21  Cc1nn(-c2ccccc2)c(N)c1N=C1NC(=O)/C(=C/c2ccc(Cl)cc2)S1                growth             %      81.8
